Target: T1, recombinant human GREM1 (hGREM1-His; C-terminal 10His tagged, R&D, #5190-GR) (human, UniProt O60565 25-184)
T1 construct: range 25-184; also called recombinant human GREM1 with a C-terminal decahistidine tag
T1 sequence: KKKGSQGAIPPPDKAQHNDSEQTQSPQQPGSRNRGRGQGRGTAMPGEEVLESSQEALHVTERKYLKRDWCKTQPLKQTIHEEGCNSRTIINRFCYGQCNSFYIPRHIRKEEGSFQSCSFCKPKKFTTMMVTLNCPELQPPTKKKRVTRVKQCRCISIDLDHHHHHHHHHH
Test: BLI Octet, mAb captured, 100 nM GREM1;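 also: octet Red96 biolayer interferometry at 25 °C in pH 7.4 HEPES saline buffer, antibodies held on anti-human IgG Fc capture biosensors, then exposed to GREM1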
Recorded Metric: Binding Signal with 300 sec Association (nm)

>>> reported_result("H4H2895N (antibody, human IgG4, V domains shown, H4H prefix = human IgG4 Fc) VH: EVQLVESGGGLVQPGGSLRLSCAASGFTVSSNYMSWVRQAPGKGLEWVSVIYSGGNTYYADSVKGRFTISRHNSKNTLYLQMNSLRAEDTAVYYCARDLGIKSDYWGQGTLVTVSS VL: EIVLTQSPDFQSVTPKEKVTITCRASQSIGTTLHWYQQKPDQSPKLLIKYVSQSLSGVPSRFSGSGSGTDFTLTINSLEAEDAATYYCHQSSSLPWTFGQGTKVEIK")
0.5
>>> reported_result("H4H2926N (antibody, human IgG4, V domains shown, H4H prefix = human IgG4 Fc) VH: EVQLVESGGGLVQTGRSLRLSCAASGFTFDDYAMNWVRQAPGKGLEWVSGISWNSGNIGYADSVKGRFTISRDNAKNSLYLQMNSLRAEDTALYYCVKYIGQQLVQDYFDYWGQGTLVTVSS VL: DIQMTQSPSSLSASVGDRVTITCQASQDITNYLNWYQQRPGKAPKLLIYDAFNLERGVPSRFSGSGYGTYFTFTISSLQPEDIAIYYCQQYDNLPLTFGGGTKVEIE")
0.49
>>> reported_result("H4H6269P (antibody, human IgG4, V domains shown, H4H prefix = human IgG4 Fc) VH: QVQLQESGPGLVKPSQTLSLTCTVSGGSISSGGYYWTWIRQHPGKGLEWIGYIYYSGSTYYNPSLKSRVTMSVDTSKNQFSLKLSSVTAADTAVYYCARLLDFDYWGQGTLVTVSS VL: AIQMTQSPSSLSASVGDRVTITCRASQGIRNDLGWYQQKPGKAPKLLIYAASSLQSGVPSRFSGSGSGRDFTLTISSLQPEDFASYYCLQDHNYPLTFGGGTKVEIK")
0.6
>>> reported_result("H4H6243P (antibody, human IgG4, V domains shown, H4H prefix = human IgG4 Fc) VH: QVQLVQSGAEVKKPGASVKVSCKVSGYTLTELSMHWVRQAPGKGLEWMGGFDPEDGETIYAQKFQDRVTMTEDTSTDTAYMELSSLRSEDTAVYYCVTDDYEILPEYPYNMDVWGQGTTVTVSS VL: DIQMTQSPSSLSASVGDRVTITCRASQSISTYLNWYQQKPGKAPKLLIYAASSLQSGVPSRFSGSGSGTDFTLTIRSLQPEDFATYYCQQSHITPFTFGPGTKVDIK")
0.47
>>> reported_result("H4H6232P (antibody, human IgG4, V domains shown, H4H prefix = human IgG4 Fc) VH: QVQLVQSGAEVKKPGASVKVSCKVSGYTLTELSMHWVRQAPGKGLEWMGGFDPEDGETIYAQKFQGRLTMTEDTSTDTAYMELSSLRSEDTAVYYCATDDYDILTSYPYNMDVWGQGTTVTVSS VL: DIQMTQSPSSLSASVGDRVTITCRASQSINNYLNWYQQKPGKAPKLLIYAASSLQSGVPSRFSGSGSGTDFTLTISSLQPEDFGTYYCQQSDSTPFTFGPGTKVDIK")
0.48
>>> reported_result("H4H6256P (antibody, human IgG4, V domains shown, H4H prefix = human IgG4 Fc) VH: QVQLVESGGGVVQPGRSLRLSCAASGFTFSAYGMHWVRQGPGKGLEWVAVIWYDGSNKYYADSVKGRFTISRDNSKNTLYLQMNRLRAEDTAVYYCARDDYGDSPGFDHWGQGTLVTVSS VL: EIVMTQSPATLSVSPGERATLSCRASQSVSSELAWYQQKPGQAPRLLLYGASTRATGIPARFSGSGSGTEFTLTISSLQSEDFAVYYCQQYSNWPPWTFGQGTKVEIK")
0.4
>>> reported_result("H4H6252P (antibody, human IgG4, V domains shown, H4H prefix = human IgG4 Fc; also called H4H6252S) VH: QVQLVESGGGVVQPGRSLRLSCAASGFTFSNYGMHWVRQAPGRGLEWVAVIWFDGSNKYYADSVKGRFTISRDNSKNTLYLQMNSLRSEDTAVYYCTRDDYGDYDYPFDYWGQGTLVTVSS VL: DIQMTQSPSSLSASVGDRVTITCRASQGIRNDLGWYQQKPGKAPKRLIYAASSLQSGVPSRFSGSGSGTEFTLTISSLQPEDFATYYCLQYNTYPPFTFGPGTKVDIK")
0.44
>>> reported_result("H4H6251P (antibody, human IgG4, V domains shown, H4H prefix = human IgG4 Fc) VH: QVQLVESGGGVVQPGKSLRLSCAASGFTFSRYGMHWVRQAPGKGLEWVAVIWYDGSNKYYADSVKGRFTISRDNSKNTLYLQMNSLRADDTAMYYCARDDYGDSPGFDFWGQGTLVTVSS VL: EIVMTQSPATLSVSPGERATLSCRASQSVSSNLAWYQQKPGQAPRLLIYDASTRATGIPARFSGTGSGTEFTLTISSLQSEDFALYYCQQYDDWPPWTFGQGTKVEIK")
0.45
>>> reported_result("H4H6246P (antibody, human IgG4, V domains shown, H4H prefix = human IgG4 Fc) VH: QVQLVESGGGVVQPGRSLRLSCAASGFTFSSYGMHWVRQAPGKGLEWVAIIWYDGSNRYYADSVKGRFTISRDNSRNTLYLQMNSLRAEDTAVYYCARDEYGDYDYPFDYWGQGTLVTVSS VL: DIQMTQSPSSLSASVGDRVTITCRASQGIRNDLGWFQQKPGKAPKRLIYAASSLQSGVPSRFSGSGSGTEFTLTISSLQPEDFATYYCLQHNTYPPFTFGPGTKVDIK")
0.38
